Data origin, for the record: ChEMBL document CHEMBL4354795

Target: UniProt:Q9Y337
Sequence (Q9Y337 whole entry): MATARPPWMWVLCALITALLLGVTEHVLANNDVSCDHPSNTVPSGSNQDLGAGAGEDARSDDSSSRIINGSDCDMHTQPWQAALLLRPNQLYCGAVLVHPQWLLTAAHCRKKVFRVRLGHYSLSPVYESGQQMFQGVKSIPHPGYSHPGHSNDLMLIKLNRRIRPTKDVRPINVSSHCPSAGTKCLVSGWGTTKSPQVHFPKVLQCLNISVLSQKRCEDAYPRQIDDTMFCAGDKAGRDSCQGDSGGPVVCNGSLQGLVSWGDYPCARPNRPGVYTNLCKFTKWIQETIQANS
Assay: Inhibition of recombinant human KLK5 expressed in expressed in Pichia pastoris X-33 cells using Boc-VPR-MCA as susbtrate measured every 60 secs for 10 mins by fluorescence based assay
Bridge positions count the residues as written; N and C are the ends. Peptide text beside a SMILES is read from it.
Each entry below carries its reported log10 of Ki.
Readout Kind: log10 of Ki (log10 of the value in nM)

Compound	log10 of Ki
N=C(N)NCCC[C@@H]1NC(=O)[C@H](Cc2cnc[nH]2)NC(=O)[C@@H]2CSSC[C@H](NC(=O)[C@H](CCC(=O)O)NC(=O)[C@@H]3CCCN3C(=O)[C@@H]3CCCN3C(=O)[C@H](Cc3ccc(O)cc3)NC(=O)[C@H](CO)NC1=O)C(=O)N[C@@H](Cc1ccccc1)C(=O)N1CCC[C@H]1C(=O)N[C@@H](CC(N)=O)C(=O)NCC(=O)N[C@@H](Cc1ccccc1)C(=O)N2 (cyclo(CFPNGFCHRSYPPE); disulfide 1-7)	0.57
N=C(N)NCCC[C@@H]1NC(=O)[C@H](CC(N)=O)NC(=O)[C@@H]2CSSC[C@H](NC(=O)[C@H](CC(=O)O)NC(=O)[C@@H]3CCCN3C(=O)[C@@H]3CCCN3C(=O)[C@H](Cc3ccc(O)cc3)NC(=O)[C@H](CO)NC1=O)C(=O)N[C@@H](Cc1ccccc1)C(=O)N1CCC[C@H]1C(=O)N[C@@H](CC(N)=O)C(=O)NCC(=O)N[C@@H](Cc1ccc(O)cc1)C(=O)N2 (cyclo(CFPNGYCNRSYPPD); disulfide 1-7)	-0.14
N=C(N)NCCC[C@@H]1NC(=O)[C@H](Cc2cnc[nH]2)NC(=O)[C@@H]2CSSC[C@H](NC(=O)[C@H](CC(=O)O)NC(=O)[C@@H]3CCCN3C(=O)[C@@H]3CCCN3C(=O)[C@H](Cc3ccc(O)cc3)NC(=O)[C@H](CO)NC1=O)C(=O)N[C@@H](Cc1ccccc1)C(=O)N1CCC[C@H]1C(=O)N[C@@H](CC(N)=O)C(=O)NCC(=O)N[C@@H](Cc1ccccc1)C(=O)N2 (cyclo(CFPNGFCHRSYPPD); disulfide 1-7)	0.95
N=C(N)NCCC[C@@H]1NC(=O)[C@H](CC(N)=O)NC(=O)[C@@H]2CSSC[C@H](NC(=O)[C@H](CCC(=O)O)NC(=O)[C@@H]3CCCN3C(=O)[C@@H]3CCCN3C(=O)[C@H](Cc3ccc(O)cc3)NC(=O)[C@H](CO)NC1=O)C(=O)N[C@@H](Cc1ccccc1)C(=O)N1CCC[C@H]1C(=O)N[C@@H](CC(N)=O)C(=O)NCC(=O)N[C@@H](Cc1ccc(O)cc1)C(=O)N2 (cyclo(CFPNGYCNRSYPPE); disulfide 1-7)	-0.47
N=C(N)NCCC[C@@H]1NC(=O)[C@H](Cc2cnc[nH]2)NC(=O)[C@@H]2CSSC[C@H](NC(=O)[C@H](CCC(=O)O)NC(=O)[C@@H]3CCCN3C(=O)[C@@H]3CCCN3C(=O)[C@H](Cc3ccc(O)cc3)NC(=O)[C@H](CO)NC1=O)C(=O)N[C@@H](Cc1c[nH]c3ccccc13)C(=O)N1CCC[C@H]1C(=O)N[C@@H](CC(N)=O)C(=O)NCC(=O)N[C@@H](Cc1ccccc1)C(=O)N2	0.38
